# System: KRas wild type
# assay: Ras GTP binding domain inhibition assay (Cy3-GTP/Cy5-GTP competition)
# Set-up: species or system human
# condition set: 20 μM; without SOS
# Excerpt: The following method was developed as specific assay for the following proteins: KRas wild type, KRas Q61H mutant, KRas G12C mutant, KRas G12D mutant, HRas wild type, Rac-1, and Rho-A. […] The small GTPases proteins: KRas wild type. KRas Q61H mutant, KRas G12C mutant, KRas G12D mutants, HRas wild type, Rac-1, and Rho-A were expressed as His-tagged proteins. In addition, the Guanosine nucleotide Exchange Factor (GEF) Sos protein (residues 556-1049) was expressed as a His-tagged protein. […]
readout type: KRas wild type: % inh.

Examples from the recorded data:
| molecule | readout type | endpoint value |
| --- | --- | --- |
| COCCNc1nc(-c2nccn2C)nc2sc(-c3cccc(OC)c3Cl)c(-c3ccc(OC)cc3)c12 [drawing 874] | KRas wild type: % inh. | B (26-50% inhibition) |
| COCCCNc1nc(-c2nccn2C)nc2sc(-c3ccn(C)n3)c(-c3ccccc3)c12 [drawing 866] | KRas wild type: % inh. | C (51-75% inhibition) |
| COC1CCN(c2nc(-c3nccn3C)nn3cc(-c4ccccc4)c(-c4ccccc4)c23)C1 (stereo not drawn) [drawing 796] | KRas wild type: % inh. | B (26-50% inhibition) |
| COc1cc(-c2sc3nc(-c4nccn4C)nc(N4CCC(OC)C4)c3c2-c2ccccc2)ccn1.Cl (stereo not drawn) | KRas wild type: % inh. | C (51-75% inhibition) |
| COC1CCN(c2nc(-c3nccn3C)nc3sc(-c4ccc(CO)cc4)c(-c4ccccc4)c23)C1.Cl (stereo not drawn) | KRas wild type: % inh. | 0 (0% inhibition) |

Provide each entry's KRas wild type: % inh. from the list below.
1. Cc1cn(C)c(-c2nc(O)c3scc(-c4ccccn4)c3n2)n1 [drawing 807]
2. Cn1ccnc1-c1nc(O)c2scc(-c3ccccn3)c2n1 [drawing 853]
3. Cn1ccnc1-c1nc(O)c(O)c(C(=O)NC2CCCC2)n1 [drawing 827]

Outgoing:
1. D (76-100% inhibition)
2. D (76-100% inhibition)
3. C (51-75% inhibition)

----------
# target system: Rho-A (Homo sapiens, UniProt P61586)
# assay: Scintillation Proximity Assay (SPA), GTP affinity
# Assay type: binding
readout type: Kd (nM)
Numbers only, in nM.

So the reported Kd for Nc1nc2c(ncn2[C@@H]2O[C@H](COP(=O)(O)OP(=O)(O)OP(=O)(O)O)[C@@H](O)[C@H]2O)c(=O)[nH]1 , on Rho-A (Homo sapiens, UniProt P61586), turned out to be 129

----------
Assign inhibition at 20 µM to each entry below.
# target system: KRas G12D mutant (Homo sapiens, UniProt P01116, G12D)
# Construct: fused on or other part: His tag, used for capture on nickel-coated plates
# assay: Ras GTP binding domain inhibition assay (Cy3-GTP/Cy5-GTP competition)
# condition set: 20 μM; with SOS (Table 7A); read-out: KRas G12D mutant + SOS: % inh.

| molecule | readout type | endpoint value |
| --- | --- | --- |
| COc1cccc(-c2sc3nc(-c4nccn4C)nc(N[C@H]4C[C@@H](OC)C4)c3c2-c2ccccc2)c1F [drawing 891] | inhibition at 20 µM | 51 to 75% |
| COc1cccc(-c2sc3nc(-c4nccn4C)nc(N[C@@H]4CC[C@H](OC)C4)c3c2C)c1F [drawing 894] | inhibition at 20 µM | 51 to 75% |
| COc1cccc(-c2sc3nc(-c4nccn4C)nc(NC4CCC(OC)C4)c3c2C)c1F (centres unmarked) [drawing 893] | inhibition at 20 µM | 51 to 75% |
| CCOc1cccc(Nc2nc(-c3ccccn3)nc(O)c2OC)c1 [drawing 882] | inhibition at 20 µM | 26 to 50% |
| Cn1ccc(-c2sc3nc(-c4nccn4C)nc(N[C@H]4C[C@@H](O)C4)c3c2-c2ccccc2)n1 [drawing 908] | inhibition at 20 µM | 0% |

Each molecule below has a recorded value; state its inhibition at 20 µM.
1. CO[C@H]1CC[C@@H](Nc2nc(-c3nc(C)cn3C)nc3sc(-c4cccc5[nH]ncc45)c(C)c23)C1 [drawing 897]
2. CO[C@H]1CC[C@@H](Nc2nc(-c3nccn3C)nc(C(=O)N3CCc4c(O)cccc4C3)c2C)C1 [drawing 901]
3. Cc1c(-c2ccn(C)n2)sc2nc(-c3nccn3C)nc(NCCOC(=O)N(C)C)c12 [drawing 918]

Outgoing:
26 to 50%
26 to 50%
76 to 100%
